- tested.target: Adrenergic β2 (Homo sapiens)
- Construct: Adherent H292 cells were removed from tissue culture flasks; endogenous in cells; host or cells: H292 cells
- Sequence (P07550 whole entry): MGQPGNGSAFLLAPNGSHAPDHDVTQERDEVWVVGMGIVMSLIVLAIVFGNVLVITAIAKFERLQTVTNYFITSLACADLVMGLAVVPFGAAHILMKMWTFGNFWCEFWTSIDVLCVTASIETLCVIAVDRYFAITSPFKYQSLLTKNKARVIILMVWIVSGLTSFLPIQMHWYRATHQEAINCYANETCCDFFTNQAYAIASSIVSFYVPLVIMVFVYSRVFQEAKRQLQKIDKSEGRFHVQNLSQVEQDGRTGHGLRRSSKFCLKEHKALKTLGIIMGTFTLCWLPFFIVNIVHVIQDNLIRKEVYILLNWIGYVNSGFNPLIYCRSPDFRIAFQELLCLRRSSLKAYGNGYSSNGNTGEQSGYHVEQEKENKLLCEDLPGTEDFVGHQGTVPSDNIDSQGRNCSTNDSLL
- experiment.summary: Adrenergic β2 mediated cAMP production in H292 cells
- Format: cell-based
- condition: Intrinsic Activity as a fraction relative to the maximum activity determined for formoterol
Structures can show the parent of a compound that is named as a salt.
So I've got a bunch of compounds here, and I need their β2 Int Act values.
Keep it simple and answer with nothing but the number.

Q: // returns reported β2 Int Act for input O=C(CCNCCc1cccs1)N(CCNCCc1ccc(O)c2[nH]c(=O)sc12)C1CCCCCC1 [Example 52, bis-trifluoroacetic acid salt]
Ans: 0.92

Q: // returns reported β2 Int Act for input O=C(CCNCCc1cccc(F)c1F)N(CCNCCc1ccc(O)c2[nH]c(=O)sc12)C1CCCCC1 [Example 81, bis-trifluoroacetic acid salt]
Ans: 0.89

Q: // returns reported β2 Int Act for input CCCC(CCC)N(CCNCCc1ccc(O)c2[nH]c(=O)sc12)C(=O)CCNCCc1cccc(F)c1 [Example 63, bis-trifluoroacetic acid salt]
Ans: 0.93

Q: // returns reported β2 Int Act for input O=C(CCNCCc1cccc(F)c1F)N(CCNCCc1ccc(O)c2[nH]c(=O)sc12)C1CCCCCC1 [Example 56, bis-trifluoroacetic acid salt]
Ans: 0.86

Q: // returns reported β2 Int Act for input Cc1cccc(CCNCCC(=O)N(CCNCCc2ccc(O)c3[nH]c(=O)sc23)C2CCCCCC2)c1 [Example 85, bis-trifluoroacetic acid salt]
Ans: 0.65

Q: // returns reported β2 Int Act for input O=C(CCNCCc1ccc(F)cc1)N(CCNCCc1ccc(O)c2[nH]c(=O)sc12)CC12CC3CC(CC(C3)C1)C2 [Example 61, bis-trifluoroacetic acid salt]
Ans: 0.79

====

So I've got a bunch of molecules here, and I need their IC50 values.
- tested.target: recombinant human adrenergic beta 1 receptors (Homo sapiens, UniProt P08588)
- Construct: purchased Euroscreen
- Sequence (P08588 whole entry): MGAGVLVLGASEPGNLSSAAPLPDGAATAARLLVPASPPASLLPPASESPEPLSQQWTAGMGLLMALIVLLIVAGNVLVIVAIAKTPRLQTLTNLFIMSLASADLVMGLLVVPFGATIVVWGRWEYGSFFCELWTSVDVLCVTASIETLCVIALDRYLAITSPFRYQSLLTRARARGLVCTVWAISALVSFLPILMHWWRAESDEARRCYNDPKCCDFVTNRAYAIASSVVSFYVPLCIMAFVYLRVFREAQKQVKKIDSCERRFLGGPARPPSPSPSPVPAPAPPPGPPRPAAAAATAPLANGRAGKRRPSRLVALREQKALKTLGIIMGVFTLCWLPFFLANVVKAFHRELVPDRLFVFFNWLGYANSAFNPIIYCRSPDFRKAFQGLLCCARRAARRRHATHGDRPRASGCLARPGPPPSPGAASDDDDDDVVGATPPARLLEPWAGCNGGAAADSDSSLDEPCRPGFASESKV
- experiment.summary: Adrenergic β1 selectivity binding assay ([125I]-Iodocyanopindolol)
- condition: inhibition of [125I]-Iodocyanopindolol (0.036 nM) binding; read-out: β1 bind p IC50 (converted)
- Procedure: Membranes containing recombinant human adrenergic beta 1 receptors were obtained from Euroscreen. […] Assays were performed in U-bottomed 96-well polypropylene plates. […] Five washes with 250 μL wash buffer (50 mM HEPES, 1 mM EDTA, 120 mM NaCl, pH 7.4) were performed at 4° C. to remove unbound radioactivity. […] The plates were sealed (TopSeal A) and filter-bound radioactivity was measured with a scintillation counter (TopCount, Packard BioScience) using a 3-minute counting protocol. […]
Where a name gives a salt, the structure may show the parent alone.
Report the figure in µM without appending any unit label.

Q: // returns reported IC50 for input O=C(CCNCCc1cccc(O)c1)N(CCNCCc1ccc(O)c2[nH]c(=O)sc12)C1CCCCCC1 [Example 37, bis-trifluoroacetic acid salt]
Ans: 3.98

Q: // returns reported IC50 for input O=C(CCNCCc1ccc(Cl)c(Cl)c1)N(CCNCCc1ccc(O)c2[nH]c(=O)sc12)C1CCOCC1 [Example 24, bis-trifluoroacetic acid salt]
Ans: 2

Q: // returns reported IC50 for input O=C(CCNCCc1cccc(Cl)c1)N(CCNCCc1ccc(O)c2[nH]c(=O)sc12)C1CCCCC1 [Example 12, bis-trifluoroacetic acid salt]
Ans: 3.16

Q: // returns reported IC50 for input O=C(CCNCCc1cccc(O)c1)N(CCNCCc1ccc(O)c2[nH]c(=O)sc12)C1CCCCC1 [Example 71, bis-trifluoroacetic acid salt]
Ans: 3.98

Q: // returns reported IC50 for input O=C(CCNCCc1cc(F)cc(F)c1)N(CCNCCc1ccc(O)c2[nH]c(=O)sc12)C1CCCCCC1 [Example 58, bis-trifluoroacetic acid salt]
Ans: 5.01

Q: // returns reported IC50 for input O=C(CCNCCc1cccc(F)c1F)N(CCNCCc1ccc(O)c2[nH]c(=O)sc12)C1CCCCCC1 [Example 56, bis-trifluoroacetic acid salt]
Ans: 3.16

Source: patent US20100022491A1
